Target protein (sequence): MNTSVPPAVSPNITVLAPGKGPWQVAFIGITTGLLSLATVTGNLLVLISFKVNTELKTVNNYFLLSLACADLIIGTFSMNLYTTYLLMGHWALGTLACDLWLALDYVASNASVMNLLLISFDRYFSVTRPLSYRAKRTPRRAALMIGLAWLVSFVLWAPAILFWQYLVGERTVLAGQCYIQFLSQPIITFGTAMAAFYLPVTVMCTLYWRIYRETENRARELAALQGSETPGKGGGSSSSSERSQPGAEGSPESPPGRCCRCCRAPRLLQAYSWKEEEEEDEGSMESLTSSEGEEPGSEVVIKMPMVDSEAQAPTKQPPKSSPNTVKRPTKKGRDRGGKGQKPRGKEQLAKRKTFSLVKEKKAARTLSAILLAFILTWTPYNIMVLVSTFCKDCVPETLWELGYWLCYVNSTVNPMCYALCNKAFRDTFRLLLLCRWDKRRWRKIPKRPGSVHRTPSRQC
pIC50: −log10 of the molar value. Counter-ions that a name gives are not always drawn.
The threshold is inclusive: pIC50 of exactly 8 counts as fulfilled; values below receive not fulfilled.

[[record]]
compound = "CC(C)Oc1noc2c1CNCCC2 [Example 6, Hydrochloride]"
label_class = "fulfilled"

[[record]]
compound = "COc1noc2c1CNCC2 [O-Methyl-THPO, reference compound]"
label_class = "not fulfilled"

[[record]]
compound = "COc1noc2c1CNCCC2 [Example 5, Hydrochloride]"
label_class = "not fulfilled"


---

molecular target: central cholinergic receptors; test: 3H-oxotremorine M binding, rat brain homogenates; settings: rat brain homogenate, pH 7.4, 40 min at 30 °C; read-out: Binding IC50, 3H-Oxo-M
pIC50: −log10 of the molar value. Where a name gives a salt, the structure may show the parent alone.
recorded-metric: pIC50

[[record]]
compound = "CCOc1noc2c1CNCCC2 [Example 4, Hydrochloride]"
meas_value = 9.31

[[record]]
compound = "COc1noc2c1CNCCC2 [Example 5, Hydrochloride]"
meas_value = 8.55

[[record]]
compound = "C#CCOc1noc2c1CNCCC2 [Example 9, Hydrochloride]"
meas_value = 9.47

[[record]]
compound = "CC(C)Oc1noc2c1CNCCC2 [Example 6, Hydrochloride]"
meas_value = 8.08

[[record]]
compound = "C#CCOc1noc2c1CNCCC2C (stereo not shown)"
meas_value = 9.03

[[record]]
compound = "COc1noc2c1CNCC2 [O-Methyl-THPO, reference compound]"
meas_value = 7.21

[[record]]
compound = "COC(=O)C1=CCCN(C)C1"
meas_value = 8.72


---

Measured IC50 on central muscarinic M-1 receptors (Rattus norvegicus, UniProt P08482) follows.
Where a name gives a salt, the structure may show the parent alone.
recorded-metric: IC50 (nM)

[[record]]
compound = "CCOc1noc2c1CNCCC2 [Example 4, Hydrochloride]"
unit_abbreviation = "nM"
meas_value = 11

[[record]]
compound = "C#CCOc1noc2c1CNCCC2 [Example 9, Hydrochloride]"
unit_abbreviation = "nM"
meas_value = 16

[[record]]
compound = "C#CCOc1noc2c1CNCCC2C (stereo not drawn) [Example 14]"
unit_abbreviation = "nM"
meas_value = 16


Source: patent US4960769A
